molecular target: T1, Human PD-L1 antigen (human, UniProt Q9NZQ7 19-238); test: BLI (Octet), His-tagged VHH on anti-penta-His tips, soluble human PD-L1
T1 construct: also called PD-L1 protein
T1 sequence (Q9NZQ7 19-238 limits assumed): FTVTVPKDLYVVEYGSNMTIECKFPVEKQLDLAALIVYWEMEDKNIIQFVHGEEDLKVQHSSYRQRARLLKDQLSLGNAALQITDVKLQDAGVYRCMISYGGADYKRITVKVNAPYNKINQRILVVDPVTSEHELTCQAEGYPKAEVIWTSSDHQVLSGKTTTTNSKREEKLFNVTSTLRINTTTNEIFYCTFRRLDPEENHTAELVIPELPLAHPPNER
Metric Name: kon (M⁻¹ s⁻¹)

Binder: PL17 (VHH, not shown: C-terminal His-tag) VHH: QVQLVESGGGLVQAGGSLRLSCAASGRTFNTYDMGWFRRTPGKEREFVAGMDWNTINTYYADSVKGRFTISRDNAKNTVYLQMRSLKPEDTAVYYCAAGIRSTAIITGQADYWGQGTQVTVSS
kon [M⁻¹ s⁻¹]: 87000

[P] PL14 (VHH, not shown: C-terminal His-tag) VHH: EVQLVESGGGLVQAGGSLRLSCAASGSTSGIYDMGWYRQAPGKLREVVGIITSGGTTNYADFAKGRFTISRDNAKNMMYLQMNSLKPEDTAVYYCNIRTRLIIWGQGTQVTVSS
[Q] PL16 (VHH, not shown: C-terminal His-tag) VHH: QVQLVESGGGLVQAGGSLRLSCAFSGGTFLTYSLGWFRQGPGKEREFVASINWSGYMTSYVDSVKGRFTISRDNAKNTVYLQMNSLKPEDTALYYCAAARTAIAAKRSSEFDYWGQGAQVTVSS
[R] PL18 (VHH, not shown: C-terminal His-tag) VHH: EVQLVESGGGLVQAGGSLRLSCAASGRTFNIYSMAWFRQAPGKEREFVVRINWNRGTTYYADSVKGRFTISRDNAKNTVYLQMSNLKPEDTAVYYCAARGSPSTIGAFTSASHYDYWGQGTQVTVSS
Exercise: Put these in order: smallest kon first, largest last. Arrange the labels as the request states and list them.
Solution: R, P, Q
